Biological target: T1, human amylin 3(a) receptor (human calcitonin receptor plus RAMP-3) (human, UniProt P30988 25-474; O60896 24-148, limits assumed)
T1 sequence (looked up) 1: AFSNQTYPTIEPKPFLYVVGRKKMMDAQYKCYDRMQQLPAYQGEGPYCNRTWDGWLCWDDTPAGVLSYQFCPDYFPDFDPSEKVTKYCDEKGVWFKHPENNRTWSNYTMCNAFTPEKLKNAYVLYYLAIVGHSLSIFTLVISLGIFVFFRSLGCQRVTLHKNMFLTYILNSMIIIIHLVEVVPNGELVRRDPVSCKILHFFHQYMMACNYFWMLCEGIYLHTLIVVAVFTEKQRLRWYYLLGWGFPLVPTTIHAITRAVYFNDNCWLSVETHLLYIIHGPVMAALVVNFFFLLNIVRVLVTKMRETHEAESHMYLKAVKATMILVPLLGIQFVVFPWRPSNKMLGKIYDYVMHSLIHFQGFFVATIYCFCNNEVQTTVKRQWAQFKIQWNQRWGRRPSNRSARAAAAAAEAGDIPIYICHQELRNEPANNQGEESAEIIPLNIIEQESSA
T1 sequence (looked up) 2: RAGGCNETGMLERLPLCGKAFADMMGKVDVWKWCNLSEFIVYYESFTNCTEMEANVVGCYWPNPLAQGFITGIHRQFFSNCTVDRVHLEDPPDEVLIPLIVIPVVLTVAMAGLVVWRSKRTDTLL
Assay: cell-based or functional assay
Numbered stars: 1 amine (or outer) side, 2 acyl side, 3 side chain; on linkers, the order of the positions; unused ones are H or OH. Bridge positions count the residues as written; N and C are the ends. Side chains are listed from the residue outwards. Ends that are not written are not given here. * marks the point of attachment. C20 diacid = O=C(O)CCCCCCCCCCCCCCCCCCC(=O)*; γGlu = O=C(O)[C@H](CCC(=O)[*:2])N[*:1]
Measured Ratio hCT/hAmylin funct. by item
Lab note: jot down the number only; don't add units.

INSERT INTO measurements (binder, recorded_result) VALUES
  ('K([γGlu-γGlu-C20 diacid])CNTATCATQRLAEFLRHSSPNFGAIPSSTNVGSNTP-NH2 (disulfide 2-7 (inferred), also called compound 13)', 2.2),
  ('K([γGlu-γGlu-C20 diacid])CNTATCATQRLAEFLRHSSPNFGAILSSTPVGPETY-NH2 (disulfide 2-7 (inferred))', 5.8),
  ('{C20 diacid-γGlu}-KCNTATCATQRLAEFLRHSSPNFGAILPSTNVGSETY-NH2 (disulfide 2-7, also called compound 33)', 2.2);

*Q* Please give the measured Ratio hCT/hAmylin funct. for this binder: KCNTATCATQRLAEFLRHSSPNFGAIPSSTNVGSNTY (C20 diacid-gGlu on the alpha amino group of the N-terminal residue (position 1); disulfide bridge Cys2-Cys7; C-terminal amide, also called compound 9) [N^α1-[(4S)-4-carboxy-4-(19-carboxynonadecanoylamino)butanoyl]-[Glu14,Arg17,Pro21,Pro27]-h-amylin]
*A* 7.4

*Q* Entry to check: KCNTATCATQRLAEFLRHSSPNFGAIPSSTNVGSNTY (C20 diacid-gGlu-2xOEG on the alpha amino group of the N-terminal residue (position 1); disulfide bridge Cys2-Cys7; C-terminal amide, also called compound 19)
*A* 17.4
